Test Protocol: AUC (0 to 24 hrs) in epithelial lining fluid of healthy human at 400 mg, po administered as single dose by linear trapezoidal method
Measured Attribute: AUC(0-t) at 24 h (µg·h/mL)
Form entry: value (µg·h/mL) — number only.

Inquiry: Any idea what its AUC(0-t) at 24 h is? The compound is CC[C@H]1OC(=O)[C@H](C)C(=O)[C@H](C)[C@@H](O[C@@H]2O[C@H](C)C[C@H](N(C)C)[C@H]2O)[C@@]2(C)C[C@@H](C)/C(=N\C(C)=O)[C@H](C)[C@@H](OC/C(=N\OCc3ccc(-n4cccn4)nc3)CO2)[C@]1(C)O [MODITHROMYCIN]
Reply text: 212
